// pIC50 lookup, one value per entry
Target: 20S proteasome
Experiment: Inhibition of 20S proteasome (unknown origin)
Assay type: protein-complex assay, Homo sapiens
Convention used: pIC50 is expressed as -log10 of the molar concentration.

CC[C@H]1C(=O)NC2([C@@H](O)[C@@H]3C=CCCC3)C(=O)O[C@@H]12 (some centres not stated); 7.05

Inquiry: Could you share which pIC50 value was measured for CCCC[C@@H](C=O)NC(=O)[C@H](CC(C)C)NC(=O)[C@@H](CC(C)C)NC(=O)CC ?
Reply text: 7.05
